# protocol_summary: ATG_AP_1_CIS: Attagene CIS-FACTORIAL HepG2 Assay for human Activator Protein 1 (AP-1) (AID 2282931)
# settings: HepG2 Attagene cis-factorial AP-1 reporter mRNA; actives raise or lower the signal
Activity calls are given as the source filed them. How the source made its calls: active means hit-call score of the fitted dose curve at least 0.9, where 1 is the maximum; inactive means score below 0.9.
Result category, one only: yes (active), no (inactive)

Fc1c(F)c(F)c(Br)c(F)c1F    no

Hi, do you know how `CC(C)(C)c1n[nH]c(=S)n(N)c1=O` came out in this test?
no

Hi, do you know how `CCCC[n+]1ccccc1` came out in this test?
no

Hi, do you know how `C=CC(C)(C)O` came out in this test?
no

Hi, do you know how `COc1cccc(OC)c1` came out in this test?
no

Hi, do you know how `CCCC(=O)c1cc(O)c(O)cc1O` came out in this test?
no

Hi, do you know how NC(=O)NC1NC(=O)NC1=O (centres undefined) came out in this test?
no

Hi, do you know how `CCCCCCCCCCCCCOS(=O)(=O)O` came out in this test?
no
